test system: Escherichia coli; test: Antibacterial activity against Escherichia coli NCIM 2931 assessed as diameter of inhibition zone measured after 20 hrs by agar well diffusion method; format: functional
Active and inactive are the calls of the source. The rule behind the calls is not given here.
property measured: diameter of the inhibition zone (DIZ)

Would you please look over these solved cases?
// diameter of the inhibition zone (DIZ) lookup, molecule = CN[C@@H]1[C@H](O[C@H]2[C@H](O[C@H]3[C@H](O)[C@@H](O)[C@H](N=C(N)N)[C@@H](O)[C@@H]3N=C(N)N)O[C@@H](C)[C@]2(O)C=O)O[C@@H](CO)[C@H](O)[C@H]1O [STREPTOMYCIN] , result: 32 mm

# diameter of the inhibition zone (DIZ) (molecule: Clc1nccc2[nH]c(-c3ccccc3)c(CN3CCOCC3)c12 ) is inactive

Briefly, diameter of the inhibition zone (DIZ) measured for CN(CCc1ccccc1)Cc1c(CC2CCCCC2)[nH]c2ccnc(Cl)c12 : inactive

Item: Clc1nccc2[nH]c(CC3CCCCC3)c(CN3CCOCC3)c12 | diameter of the inhibition zone (DIZ): inactive

Turning now to a further record.
Value of measured diameter of the inhibition zone (DIZ) for the entry OCCN1CCN(Cc2c(-c3ccccc3)[nH]c3ccnc(Cl)c23)CC1 : inactive

* * *

test system: Scopulariopsis sp; experiment: Antifungal activity against Scopulariopsis sp. MTCC 3553 assessed as diameter of inhibition zone after 4 days by agar well diffusion method; assay type: functional
Active and inactive are the calls of the source. The calls are words filed in the database; no cut-off is given here.
property measured: diameter of the inhibition zone (DIZ)

diameter of the inhibition zone (DIZ) of Clc1nccc2[nH]c(-c3ccccc3)c(CN3CCOCC3)c12 , assay on Scopulariopsis sp, is inactive

Scopulariopsis sp assay, compound CN(CCc1ccccc1)Cc1c(CC2CCCCC2)[nH]c2ccnc(Cl)c12 , recorded diameter of the inhibition zone (DIZ) = inactive

Reported diameter of the inhibition zone (DIZ) (Scopulariopsis sp) for entry CN[C@@H]1[C@H](O[C@H]2[C@H](O[C@H]3[C@H](O)[C@@H](O)[C@H](N=C(N)N)[C@@H](O)[C@@H]3N=C(N)N)O[C@@H](C)[C@]2(O)C=O)O[C@@H](CO)[C@H](O)[C@H]1O [STREPTOMYCIN] is inactive

For OCCN1CCN(Cc2c(-c3ccccc3)[nH]c3ccnc(Cl)c23)CC1 on Scopulariopsis sp, measured diameter of the inhibition zone (DIZ) was inactive

Lab note: next compound to report on.
Tested on Scopulariopsis sp: Clc1nccc2[nH]c(CC3CCCCC3)c(CN3CCOCC3)c12 . Observed diameter of the inhibition zone (DIZ): inactive

* * *

test system: Bacillus flexus; assay: Antibacterial activity against Bacillus flexus MTCC 2909 after 24 hrs by broth microdilution method; type: functional; conditions: Priestia flexa, MTCC 2909, 24 h
Recorded MIC, one value per entry.
Use µg/mL as the unit, but write only the number.

// MIC lookup, molecule = CN(CCc1ccccc1)Cc1c(CC2CCCCC2)[nH]c2ccnc(Cl)c12 , result: 8

// sample CN[C@@H]1[C@H](O[C@H]2[C@H](O[C@H]3[C@H](O)[C@@H](O)[C@H](N=C(N)N)[C@@H](O)[C@@H]3N=C(N)N)O[C@@H](C)[C@]2(O)C=O)O[C@@H](CO)[C@H](O)[C@H]1O , its MIC was 1.5

In plain terms, Clc1nccc2[nH]c(CC3CCCCC3)c(CN3CCOCC3)c12 has a documented MIC of 40

* * *

test: Selectivity index, ratio of IC50 for human HEK293T cells to MIC for Mycobacterium tuberculosis H37Rv ATCC 27294; assay type: toxicity; conditions: read-out: Selectivity Index
property measured: selectivity ratio

Short answer for Clc1nccc2[nH]c(CC3CCCCC3)c(CN3CCOCC3)c12 : selectivity ratio was 1 to 2

Next:
Value of selectivity ratio reported for the compound CN(CCc1ccccc1)Cc1c(CC2CCCCC2)[nH]c2ccnc(Cl)c12 is > 16

* * *

test system: Streptococcus mutans; assay: Antibacterial activity against Streptococcus mutans MTCC 890 assessed as diameter of inhibition zone measured after 20 hrs by agar well diffusion method; assay type: functional
property measured: diameter of the inhibition zone (DIZ) (mm)
Please reply with the bare figure in mm and do not write the unit itself.

Recorded diameter of the inhibition zone (DIZ) (compound OCCN1CCN(Cc2c(-c3ccccc3)[nH]c3ccnc(Cl)c23)CC1 ): 10

Value of measured diameter of the inhibition zone (DIZ) for the entry Clc1nccc2[nH]c(CC3CCCCC3)c(CN3CCOCC3)c12 : 20

// diameter of the inhibition zone (DIZ) lookup, compound = CN(CCc1ccccc1)Cc1c(CC2CCCCC2)[nH]c2ccnc(Cl)c12 , result: 32

Clc1nccc2[nH]c(-c3ccccc3)c(CN3CCOCC3)c12 yielded diameter of the inhibition zone (DIZ) of 10

Record CN[C@@H]1[C@H](O[C@H]2[C@H](O[C@H]3[C@H](O)[C@@H](O)[C@H](N=C(N)N)[C@@H](O)[C@@H]3N=C(N)N)O[C@@H](C)[C@]2(O)C=O)O[C@@H](CO)[C@H](O)[C@H]1O , field diameter of the inhibition zone (DIZ): 32

Values were extracted from ChEMBL document CHEMBL4038285.
